molecular target: human plasma kallikrein (Homo sapiens); experiment: Kallikrein inhibition assay utilizing a quenched AMC peptide substrate (FLINT); settings: 11-point, 3-fold serial dilution, top 1 μM; 30 min preincubation; 2 nM kallikrein; 50 μM Z-Gly-Pro-Arg-AMC; kinetic reads over 30 min
Sequence (P03952 391-638 limits assumed): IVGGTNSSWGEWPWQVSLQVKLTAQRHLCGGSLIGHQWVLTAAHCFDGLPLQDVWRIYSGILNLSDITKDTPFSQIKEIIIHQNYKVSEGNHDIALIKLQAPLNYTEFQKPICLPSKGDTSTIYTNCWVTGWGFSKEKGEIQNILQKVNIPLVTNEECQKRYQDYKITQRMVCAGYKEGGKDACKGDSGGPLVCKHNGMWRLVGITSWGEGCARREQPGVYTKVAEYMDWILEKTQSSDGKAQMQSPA
Sequence (P03952 20-390 partner limits assumed): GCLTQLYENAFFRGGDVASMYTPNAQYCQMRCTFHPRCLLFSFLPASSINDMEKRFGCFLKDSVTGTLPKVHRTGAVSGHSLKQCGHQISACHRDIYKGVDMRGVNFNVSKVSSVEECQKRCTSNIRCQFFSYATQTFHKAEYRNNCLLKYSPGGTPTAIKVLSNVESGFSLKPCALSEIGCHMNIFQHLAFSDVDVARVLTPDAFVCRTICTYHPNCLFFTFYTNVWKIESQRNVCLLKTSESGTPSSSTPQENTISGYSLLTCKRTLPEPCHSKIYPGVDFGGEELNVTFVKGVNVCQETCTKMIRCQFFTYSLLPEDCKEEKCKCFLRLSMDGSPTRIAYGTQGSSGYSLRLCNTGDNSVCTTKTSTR
I'd be grateful if you could share measured log10 IC50 for these entries.
Hey, these are logged values: log10 of IC50, nM being the unit before logging.

Solved entries (count: 8):
compound | log10 IC50
CC1(C)C(=O)Nc2ccc(NC(=O)[C@@H]3CC[C@@H]4CC(c5c(-n6cnnn6)ccc(Cl)c5F)=CC(=O)N43)cc21 [ID No. 7] | 2.12
CO[C@@H]1C[C@@H](C(=O)Nc2ccc3nn(C)cc3c2)N2C(=O)C=C(c3c(-n4cnnn4)ccc(Cl)c3F)CC12 (mixture of isomers) [ID No. 44] | 1.50
Cn1nc2ccc(NC(=O)C3CCC4CC(c5c(-n6cc(C(F)(F)F)nn6)ccc(Cl)c5F)=CC(=O)N43)cc2n1 (stereo not shown) [compound 106] | 2.70
CC1C[C@@H](C(=O)Nc2ccc3nccnc3c2)N2C(=O)C=C(c3c(-n4cnnn4)ccc(Cl)c3F)CC12 (mixture of isomers) [ID No. 85] | 1.09
CC1C[C@@H](C(=O)Nc2ccc3n[nH]cc3c2)N2C(=O)C=C(c3c(-n4cnnn4)ccc(Cl)c3F)CC12 (mixture of isomers) [ID No. 84] | 1.44
CN(C)c1ccc2cc(NC(=O)[C@@H]3CC[C@@H]4CC(c5c(-n6cnnn6)ccc(Cl)c5F)=CC(=O)N43)ccc2n1 [ID No. 11] | 1.82
O=C(Nc1ccc2ncsc2c1)[C@@H]1CCC2CC(c3c(-n4cnnn4)ccc(Cl)c3F)=CC(=O)N21 (mixture of isomers) [ID No. 55] | 1.44
O=C(Nc1ccc2c(c1)C1(CCCC1)C(=O)N2)[C@@H]1CC[C@@H]2CC(c3c(-n4cnnn4)ccc(Cl)c3F)=CC(=O)N21 [ID No. 8] | 2.25

Hi, could you look up log10 IC50 for each item in my list?
1. O=C(Nc1ccc2c(c1)CN(O)C2=O)[C@@H]1CCC2CC(c3c(-n4cnnn4)ccc(Cl)c3F)=CC(=O)N21 (mixture of isomers) [ID No. 30]
2. O=C(Nc1ccc2ncc(F)cc2c1)[C@@H]1CC[C@@H]2CC(c3c(-n4cnnn4)ccc(Cl)c3F)=CC(=O)N21 [ID No. 10]
3. CO[C@H]1C[C@@H](C(=O)Nc2ccc3ncccc3c2)N2C(=O)C=C(c3c(-n4cnnn4)ccc(Cl)c3F)CC12 (mixture of isomers) [ID No. 29]
4. NC(=O)c1ccc(NC(=O)[C@@H]2CCC3CC(c4c(-n5cnnn5)ccc(Cl)c4F)=CC(=O)N32)cc1F (mixture of isomers) [ID No. 39]

(A)
1: 2.11; 2: 1.35; 3: 2.79; 4: 1.72

(Q) Tell me measured log10 IC50 for O=C(Nc1ccc(-n2cnnn2)cc1)[C@@H]1CCC2CC(c3c(-n4cnnn4)ccc(Cl)c3F)=CC(=O)N21 (mixture of isomers) [ID No. 73] please.
(A) 2.19

These data points were gathered from patent US12286429B2.
